Each recorded value in this set is attributed to PubChem BioAssay (EPA / NIEHS).

# Read-out: Interleukin-1 alpha (IL1a), IL1A (gene 3552)
# assay_remarks: BSK_LPS_IL1a: BioMAP Diversity Plus: LPS Assay for Interleukin-1 alpha (IL1a) Biomarker Activity (AID 2283080)
# condition_set: primary human HUVEC with PBMC; actives raise or lower the signal
The source made the active and inactive calls. The calls were made as follows: active = hit-call score of the fitted dose curve at least 0.9, where 1 is the maximum; inactive = score below 0.9.
// classify into y = active, n = inactive

Some solved cases for reference:
compound	classification
[N-]=[N+]=[N-]	n
CCCCN(CCCC)SN(C)C(=O)Oc1cccc2c1OC(C)(C)C2	y
O=C(O)C=CC(F)(C(F)(F)F)C(F)(F)F	n
O=P(Oc1ccccc1)(Oc1ccccc1)Oc1ccccc1	n
O=[N+]([O-])c1ccc(Cl)c(Cl)c1	n
N#Cc1cc([N+](=O)[O-])ccc1N	n

Tell me the assay call for O=C(O)C(F)(F)C(F)(F)C(=O)O please.
n

Tell me the assay call for Cc1c([N+](=O)[O-])cc2c(c1[N+](=O)[O-])C(C)(C)CC2(C)C please.
n

Tell me the assay call for OCC(F)(F)OC(F)(F)C(F)(F)OC(F)(F)C(F)(F)OC(F)(F)CO please.
n

Tell me the assay call for COP(=O)(CCC(=O)NCO)OC please.
n

Tell me the assay call for CCOP(=S)(Oc1ccc([N+](=O)[O-])cc1)c1ccccc1 (centres undefined) please.
n

Tell me the assay call for O=C(O)C(F)(F)OC(F)(F)C(F)(F)OC(F)(F)C(=O)O please.
n

Tell me the assay call for CC(C)Nc1ccc(Nc2ccccc2)cc1 please.
y

Tell me the assay call for Cc1ccc(O)cc1C please.
n

Tell me the assay call for COP(=O)(O)OC please.
n

Tell me the assay call for Nc1ccc([N+](=O)[O-])cc1Cl please.
n

Tell me the assay call for OCC1CO1 (centres undefined) please.
n

Tell me the assay call for O=C(O)C(F)(F)OC(F)(F)C(F)(F)OC(F)(F)F please.
n

Tell me the assay call for CCC1(c2ccccc2)C(=O)N=C(O)NC1=O (centres undefined) please.
n

Tell me the assay call for CCOP(=S)(OCC)SCS(=O)(=O)CC please.
n

Tell me the assay call for CCCCC(CC)COP(=O)(Oc1ccccc1)Oc1ccccc1 (centres undefined) please.
y

Tell me the assay call for CCOS(=O)(=O)OCC please.
n

Tell me the assay call for CCOP(=S)(S)OCC please.
y

Tell me the assay call for O=P1(N(CCCl)CCCl)NCCCO1 (centres undefined) please.
n

Tell me the assay call for CCCCN(CCCC)N=O please.
n
